Under this convention, Satisfied denotes log10 biodegradation half-life (days) strictly below 2 and Not satisfied denotes log10 biodegradation half-life (days) at or above 2.

Query: Bench note: check whether CCCC(C)CC (stereo not given) shows log10 biodegradation half-life (days) below 2
Result: Satisfied

Query: Bench note: check whether CCCCCCCCCC shows log10 biodegradation half-life (days) below 2
Result: Satisfied

Query: Bench note: check whether CCCC(C)CCC(C)C (stereo not given) shows log10 biodegradation half-life (days) below 2
Result: Satisfied

Query: Bench note: check whether C1CC2C3CCC(C3)C2C1 (stereo not given) shows log10 biodegradation half-life (days) below 2
Result: Not satisfied

Query: Bench note: check whether CCCc1ccccc1C shows log10 biodegradation half-life (days) below 2
Result: Satisfied

Query: Bench note: check whether CCCCCCCC shows log10 biodegradation half-life (days) below 2
Result: Satisfied

Query: Bench note: check whether Cc1cccc(C)c1 shows log10 biodegradation half-life (days) below 2
Result: Satisfied

Query: Bench note: check whether C1C2CC3C4CC5CC(C14)C(C2)C3C5 shows log10 biodegradation half-life (days) below 2
Result: Not satisfied

Query: Bench note: check whether c1ccc2cc3c(cc2c1)-c1cccc2cccc-3c12 shows log10 biodegradation half-life (days) below 2
Result: Not satisfied

Query: Bench note: check whether CC(C)CC(C)(C)C shows log10 biodegradation half-life (days) below 2
Result: Satisfied

Query: Bench note: check whether CCCCCCCCCCCCCCCCCCCCCCCCCCCCCCCCC shows log10 biodegradation half-life (days) below 2
Result: Not satisfied

Query: Bench note: check whether Cc1cc2ccccc2cc1C shows log10 biodegradation half-life (days) below 2
Result: Satisfied

Query: Bench note: check whether CCCCCCCCCCCCCCCCCCCCCCCCC shows log10 biodegradation half-life (days) below 2
Result: Not satisfied

Query: Bench note: check whether c1ccc2c(c1)-c1ccc3ccc4cccc5cc-2c1c3c45 shows log10 biodegradation half-life (days) below 2
Result: Not satisfied

Query: Bench note: check whether CCCCCCCCC shows log10 biodegradation half-life (days) below 2
Result: Satisfied

Query: Bench note: check whether c1cc2c3c(cccc3c1)CC2 shows log10 biodegradation half-life (days) below 2
Result: Satisfied

Query: Bench note: check whether c1cc2cccc3c4cccc5cccc(c(c1)c23)c54 shows log10 biodegradation half-life (days) below 2
Result: Not satisfied

Query: Bench note: check whether CCc1ccccc1 shows log10 biodegradation half-life (days) below 2
Result: Satisfied

Query: Bench note: check whether c1cc2c3c(c1)ccc1ccc4cccc-2c4c13 shows log10 biodegradation half-life (days) below 2
Result: Not satisfied

Query: Bench note: check whether CCCC(C)CC(C)C (stereo not given) shows log10 biodegradation half-life (days) below 2
Result: Satisfied

Query: Bench note: check whether C1CCCC1 shows log10 biodegradation half-life (days) below 2
Result: Satisfied

Query: Bench note: check whether CCc1cccc(CC)c1 shows log10 biodegradation half-life (days) below 2
Result: Satisfied

Query: Bench note: check whether CC(C)C(C)(C)C shows log10 biodegradation half-life (days) below 2
Result: Satisfied

Query: Bench note: check whether CC(C)CCCC(C)CCCC(C)CCCCC(C)CCCC(C)CCCC(C)C (stereo not given) shows log10 biodegradation half-life (days) below 2
Result: Satisfied

Query: Bench note: check whether CC1CCCCC1 shows log10 biodegradation half-life (days) below 2
Result: Satisfied
